These data points were gathered from ChEMBL document CHEMBL1140215.

Assay Procedure: Volume of distribution in mouse
Format: ADME, organism-based
Condition Set: in vivo
Property Label: Vd (L/kg)
Just the number in L/kg, nothing appended.

Which Vd value belongs to COc1cccc(-c2c(C)n(Cc3c(F)cccc3C(F)(F)F)c(=O)n(C[C@H](NCCCC(=O)[O-])c3ccccc3)c2=O)c1F.[Na+] [ELAGOLIX SODIUM] ?
1.4

---

Below are pIC50 values measured for UniProt:P08684.
Sequence (P08684 whole entry): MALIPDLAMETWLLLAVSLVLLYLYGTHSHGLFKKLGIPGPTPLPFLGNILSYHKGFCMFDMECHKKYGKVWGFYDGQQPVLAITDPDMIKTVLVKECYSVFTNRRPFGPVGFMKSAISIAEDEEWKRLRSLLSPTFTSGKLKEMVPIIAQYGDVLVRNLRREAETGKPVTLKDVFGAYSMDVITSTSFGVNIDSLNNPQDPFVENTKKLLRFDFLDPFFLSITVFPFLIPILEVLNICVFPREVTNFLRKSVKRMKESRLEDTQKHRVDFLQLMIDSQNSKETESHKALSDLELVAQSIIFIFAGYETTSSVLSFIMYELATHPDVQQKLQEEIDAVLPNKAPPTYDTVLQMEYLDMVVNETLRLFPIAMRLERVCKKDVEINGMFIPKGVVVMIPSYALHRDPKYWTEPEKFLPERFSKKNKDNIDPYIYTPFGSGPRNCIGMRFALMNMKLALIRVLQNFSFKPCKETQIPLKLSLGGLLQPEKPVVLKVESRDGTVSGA
Formally, pIC50 is defined as -log10 of the concentration c, with c in mol/L.

Write down the reported pIC50 of `COc1cccc(-c2c(C)n(Cc3c(F)cccc3F)c(=O)n(C[C@H](NCCCC(=O)O)c3ccccc3)c2=O)c1F` , test system: UniProt:P08684.
3.87

Write down the reported pIC50 of `COc1cccc(-c2c(C)n(Cc3c(F)cccc3C(F)(F)F)c(=O)n(C[C@H](NCCC(=O)O)c3ccccc3)c2=O)c1F` , test system: UniProt:P08684.
4.16

Write down the reported pIC50 of `COc1cccc(-c2c(C)n(Cc3c(F)cccc3Cl)c(=O)n(C[C@H](NCCCC(=O)O)c3ccccc3)c2=O)c1F` , test system: UniProt:P08684.
4.96

Write down the reported pIC50 of COc1cccc(-c2c(C)n(Cc3c(F)cccc3C(F)(F)F)c(=O)n(C[C@H](NCCCC(=O)[O-])c3ccccc3)c2=O)c1F.[Na+] [ELAGOLIX SODIUM] , test system: UniProt:P08684.
4.25
